Test system: SK-OV-3
protocol.notes: Antiproliferative activity against human SKOV3 cells after 48 hrs
Type: functional, cell-based
experimental.context: SK-OV-3, 48 h
pIC50: −log10 of the molar value.
measurement.label: pIC50

Cc1ccc(S(=O)(=O)N2c3c(N)nc(N)nc3CCC2CN(C)c2ccc(C(=O)N[C@@H](CCC(=O)O)C(=O)O)cc2)cc1 (stereo not given in full) :: 6.35

[I] Nc1nc(N)c2c(n1)CCC1CN(c3ccc(C(=O)N[C@@H](CCC(=O)O)C(=O)O)cc3)CN21 (stereo not given in full)
[II] C=CCN1c2c(N)nc(N)nc2CCC1CN(C)c1ccc(C(=O)N[C@@H](CCC(=O)O)C(=O)O)cc1 (stereo not given in full)
Lab notebook, comparison: I versus II , higher pIC50 goes to which? Return value: the label identifying the chosen record.
II

----------
experimental.system: Methionine synthase (Homo sapiens)
Sequence (Q99707 whole entry): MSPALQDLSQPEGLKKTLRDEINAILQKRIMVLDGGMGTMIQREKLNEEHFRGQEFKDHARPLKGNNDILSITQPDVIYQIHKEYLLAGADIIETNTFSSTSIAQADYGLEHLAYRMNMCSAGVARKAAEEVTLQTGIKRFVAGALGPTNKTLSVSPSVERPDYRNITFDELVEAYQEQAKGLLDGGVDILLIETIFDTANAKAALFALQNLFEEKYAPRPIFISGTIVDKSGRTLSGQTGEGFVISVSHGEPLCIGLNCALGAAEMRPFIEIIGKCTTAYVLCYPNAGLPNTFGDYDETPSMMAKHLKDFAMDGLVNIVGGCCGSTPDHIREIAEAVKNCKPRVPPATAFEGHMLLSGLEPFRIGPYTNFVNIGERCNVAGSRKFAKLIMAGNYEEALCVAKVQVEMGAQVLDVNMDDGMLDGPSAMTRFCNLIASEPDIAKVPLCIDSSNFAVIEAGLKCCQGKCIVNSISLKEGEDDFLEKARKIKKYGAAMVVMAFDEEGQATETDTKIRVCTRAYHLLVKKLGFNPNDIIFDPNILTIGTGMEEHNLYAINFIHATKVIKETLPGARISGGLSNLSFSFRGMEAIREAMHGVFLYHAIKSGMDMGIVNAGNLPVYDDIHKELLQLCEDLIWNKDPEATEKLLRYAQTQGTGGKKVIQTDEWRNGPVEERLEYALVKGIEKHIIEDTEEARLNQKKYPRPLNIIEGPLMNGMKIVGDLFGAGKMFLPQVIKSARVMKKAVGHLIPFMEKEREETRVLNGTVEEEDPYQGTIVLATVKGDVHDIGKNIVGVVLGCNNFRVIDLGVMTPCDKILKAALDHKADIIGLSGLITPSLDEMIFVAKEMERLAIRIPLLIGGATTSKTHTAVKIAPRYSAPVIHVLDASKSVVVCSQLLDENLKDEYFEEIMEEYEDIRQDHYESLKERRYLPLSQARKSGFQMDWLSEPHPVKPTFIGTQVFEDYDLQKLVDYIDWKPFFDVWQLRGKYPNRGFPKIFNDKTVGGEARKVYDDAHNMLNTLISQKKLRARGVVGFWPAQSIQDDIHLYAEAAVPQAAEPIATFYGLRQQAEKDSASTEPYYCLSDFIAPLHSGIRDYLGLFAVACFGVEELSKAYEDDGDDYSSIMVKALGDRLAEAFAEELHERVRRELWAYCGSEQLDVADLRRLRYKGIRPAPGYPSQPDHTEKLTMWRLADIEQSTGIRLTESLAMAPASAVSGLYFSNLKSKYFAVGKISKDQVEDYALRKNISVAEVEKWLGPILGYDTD
protocol.notes: Inhibition of methionine synthase in human HL60 cells using L-homocysteine as substrate incubated for 3 hrs prior to substrate addition measured after 10 mins spectrophotometric analysis
measurement.label: IC50 (µM)

[A] CN(CC1CCc2nc(N)nc(N)c2N1C=O)c1ccc(C(=O)N[C@@H](CCC(=O)O)C(=O)O)cc1 (stereo partly drawn)
[B] Nc1nc(N)c2c(n1)CCC1CN(c3ccc(C(=O)N[C@@H](CCC(=O)O)C(=O)O)cc3)CN21 (stereo partly drawn)
[C] C=CCN1c2c(N)nc(N)nc2CCC1CNc1ccc(C(=O)N[C@@H](CCC(=O)O)C(=O)O)cc1Br (stereo partly drawn)
[D] Nc1nc(N)c2c(n1)CCC(CNc1ccc(C(=O)N[C@@H](CCC(=O)O)C(=O)O)cc1Br)N2CC(Br)CBr (stereo partly drawn)
Could you arrange the 4 compounds above by IC50, starting with the largest number? To answer, arrange all of the labels according to the requested order.
B, C, A, D
(B: 66.4 µM, C: 21 µM, A: 8.11 µM, D: 1.43 µM)

[A] Cc1ccc(S(=O)(=O)N2c3c(N)nc(N)nc3CCC2CN(C)c2ccc(C(=O)N[C@@H](CCC(=O)O)C(=O)O)cc2)cc1 (stereo partly drawn)
[B] C=CCN(CC1CCc2nc(N)nc(N)c2N1CC=C)c1ccc(C(=O)N[C@@H](CCC(=O)O)C(=O)O)cc1 (stereo partly drawn)
[C] C=CCN1c2c(N)nc(N)nc2CCC1CNc1ccc(C(=O)N[C@@H](CCC(=O)O)C(=O)O)cc1 (stereo partly drawn)
Sort these compounds on IC50 so the largest reading comes first. To answer, arrange all of the labels according to the requested order.
A, C, B
(A: 55 µM, C: 27.8 µM, B: 15.9 µM)

----------
Test system: SK-OV-3
protocol.notes: Antiproliferative activity against human SKOV3 cells after 48 hrs
Assay type: functional, cell-based
experimental.context: SK-OV-3, 48 h
measurement.label: IC50 (nM)

[a] CN(Cc1cnc2nc(N)nc(N)c2n1)c1ccc(C(=O)N[C@@H](CCC(=O)O)C(=O)O)cc1 [METHOTREXATE]
[b] Nc1nc(N)c2nc(CNc3ccc(C(=O)N[C@@H](CCC(=O)O)C(=O)O)cc3)ccc2n1
Please compare: a and b . Report which one has the smaller IC50 value. Return value: the label identifying the chosen record.
b

----------
experimental.system: Methionine synthase (Homo sapiens)
protocol.notes: Inhibition of methionine synthase in human HL60 cells using L-homocysteine as substrate incubated for 3 hrs prior to substrate addition measured after 10 mins spectrophotometric analysis
pIC50: −log10 of the molar value.
measurement.label: pIC50

Please review the following examples before continuing.
Nc1nc(N)c2nc(CNc3ccc(C(=O)N[C@@H](CCC(=O)O)C(=O)O)cc3)ccc2n1 :: < 4.00
Nc1nc(N)c2c(n1)CCC(CNc1ccc(C(=O)N[C@@H](CCC(=O)O)C(=O)O)cc1)N2 (mixture of isomers) :: 4.06
CC(=O)N(CC1CCc2nc(N)nc(N)c2N1C=O)c1ccc(C(=O)N[C@@H](CCC(=O)O)C(=O)O)cc1 (stereo partly specified) :: 5.76
C=CCN1c2c(N)nc(N)nc2CCC1CN(C)c1ccc(C(=O)N[C@@H](CCC(=O)O)C(=O)O)cc1 (stereo partly specified) :: < 4.00
CN(CC1CCc2nc(N)nc(N)c2N1)c1ccc(C(=O)N[C@@H](CCC(=O)O)C(=O)O)cc1 (mixture of isomers) :: < 4.00

Next:
For Methionine synthase (Homo sapiens), give pIC50 of the listed compound: CC(=O)N(CC1CCc2nc(N)nc(N)c2N1)c1ccc(C(=O)N[C@@H](CCC(=O)O)C(=O)O)cc1 (mixture of isomers)
< 4.00

----------
Test system: SK-OV-3
protocol.notes: Antiproliferative activity against human SKOV3 cells after 48 hrs
Type: functional, cell-based
experimental.context: SK-OV-3, 48 h
pIC50: −log10 of the molar value.
measurement.label: pIC50

C=CCN1c2c(N)nc(N)nc2CCC1CNc1ccc(C(=O)N[C@@H](CCC(=O)O)C(=O)O)cc1 (stereo partly specified) :: 6.06
Nc1nc(N)c2c(n1)CCC(CNc1ccc(C(=O)N[C@@H](CCC(=O)O)C(=O)O)cc1)N2 (mixture of isomers) :: 6.62
CC(=O)N(CC1CCc2nc(N)nc(N)c2N1C=O)c1ccc(C(=O)N[C@@H](CCC(=O)O)C(=O)O)cc1 (stereo partly specified) :: 4.46

[a] Nc1nc(N)c2c(n1)CCC(CNc1ccc(C(=O)N[C@@H](CCC(=O)O)C(=O)O)cc1Br)N2CC(Br)CBr (stereo partly specified)
[b] C=CCN(CC1CCc2nc(N)nc(N)c2N1CC=C)c1ccc(C(=O)N[C@@H](CCC(=O)O)C(=O)O)cc1 (stereo partly specified)
Please compare: a and b . Report which one has the smaller pIC50 value. Return value: the label identifying the chosen record.
b
